Data provenance: patent US11252960B2

Tested on: Burkholderia cepacia (ATCC 25416)
Assay: Anti-bacterial Minimum Inhibitory Concentration (MIC) Method, microbroth dilution
Assay type: cell-based
Settings: Table 1; CAMHB, 37° C., 24 hours, pH 4.5-adjusted stock
Procedure: Anti-Bacterial and Anti-Fungal Minimum Inhibitory Concentration (MIC) Method Method: Microbroth Dilution Method (96-well format). Test item: […] […] (Aspergillus brasiliensis) • Incubation Time: 48 hours • Inoculum Size: 5×10^4 cfu/mL • Strains: • Candida albicans (ATCC 10231) • Aspergillus brasiliensis (ATCC 16404) • End point: Inhibition of growth, Spectrophotometer Reading @ 600 nm • Reference standards: […] […]
Define the label as Satisfied when MIC (%) B. cepacia is strictly less than 0.08% and as Not satisfied in all remaining cases.

>>> answer_label("O=C(O)c1ccc(O[C@@H]2O[C@H](CO)[C@H](O)[C@H](O)[C@H]2O)cc1 [Compound 3]")
"Not satisfied"
>>> answer_label("O=C(O)c1ccc(OC2OC(CO)C(O)C2O)cc1 (stereo not shown) [Compound 4]")
"Not satisfied"
>>> answer_label("O=C(O)c1ccc(OCC(O)CO)cc1 (stereo not shown) [Compound 2, 4-(2,3-dihydroxypropoxy) benzoic acid]")
"Not satisfied"
>>> answer_label("O=C(O)c1ccc(OCCCCO)cc1 [Compound 6, 4-(4-hydroxybutoxy) benzoic acid]")
"Satisfied"
>>> answer_label("O=C(O)c1ccc(OC2CC(O)C(CO)O2)cc1 (stereo not shown) [Compound 5]")
"Satisfied"
>>> answer_label("CC(O)COc1ccc(C(=O)O)cc1 (stereo not shown) [Compound 7, 4-(2-hydroxypropoxy) benzoic acid]")
"Satisfied"

====

Type: physicochemical
Conditions: pH 4.5
measure name: Solubility (wt %)

>>> result_value("O=C(O)c1ccc(OCCO)cc1 [Compound 1, 4-(2-hydroxyethoxy) benzoic acid]")
0.2779
>>> result_value("O=C(O)c1ccc(OCC(O)CO)cc1 (centres unmarked) [Compound 2, 4-(2,3-dihydroxypropoxy) benzoic acid]")
0.343
>>> result_value("O=C(OCCCO)c1ccccc1 [Compound 11, Benzoic acid 3-hydroxy-propyl ester]")
0.55
>>> result_value("O=C(O)c1ccc(OCCCCO)cc1 [Compound 6, 4-(4-hydroxybutoxy) benzoic acid]")
0.0667
>>> result_value("O=C(O)c1ccc(OC2CC(O)C(CO)O2)cc1 (centres unmarked)")
0.11
>>> result_value("CC(O)COc1ccc(C(=O)O)cc1 (centres unmarked) [Compound 7, 4-(2-hydroxypropoxy) benzoic acid]")
0.123
>>> result_value("CCC(O)COC(=O)c1ccccc1 (centres unmarked) [Compound 12, Benzoic acid 2-hydroxy-butyl ester]")
0.24
>>> result_value("O=C(OCCCCO)c1ccccc1 [Compound 10, Benzoic acid 4-hydroxy-butyl ester]")
0.47

====

Test system: Burkholderia cepacia (ATCC 25416)
Assay: Anti-bacterial Minimum Inhibitory Concentration (MIC) Method, microbroth dilution
Type: cell-based
Conditions: Table 4; CAMHB, 37° C., 24 hours, pH 4.5-adjusted stock
MIC (%) B. cepacia reference
measure name: MIC (%) B. cepacia

>>> result_value("O=C(OCCCO)c1ccccc1 [Compound 11, Benzoic acid 3-hydroxy-propyl ester]")
0.136
>>> result_value("O=C(OCC(O)CO)c1ccccc1 (centres unmarked) [Compound 9, Benzoic acid 2,3-dihydroxypropyl ester]")
0.25
>>> result_value("O=C(OCCCCO)c1ccccc1 [Compound 10, Benzoic acid 4-hydroxy-butyl ester]")
0.057
>>> result_value("O=C(OCCO)c1ccccc1 [Compound 8, Benzoic acid 2-hydroxyethyl ester]")
0.118
>>> result_value("CCC(O)COC(=O)c1ccccc1 (centres unmarked) [Compound 12, Benzoic acid 2-hydroxy-butyl ester]")
0.1175
